tested on: A549; assay: NCI tumour cell line growth inhibition, 48 h
Activity calls are given as the source filed them. No stated cut-off is given here; in the data, active = GI50 up to about 1.1 µM and inactive = higher.
property-measured: GI50

Item: CCOc1ccc(/C=C\c2cc(OC)c(OC)c(OC)c2)cc1 | GI50: 0.0006 µM (active)

// recorded GI50 for COc1cc([C@H]2Oc3c(OC)cc(CCCO)cc3[C@@H]2CO)ccc1O [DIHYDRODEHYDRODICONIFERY ALCOHOL] : > 100 µM (inactive)

The recorded GI50 for Nc1cc2c3c(cccc3c1)C(=O)N(CCN1CCN(CCN3C(=O)c4cccc5cc(N)cc(c45)C3=O)CC1)C2=O is 46.3 µM (inactive)

Note to self: GI50 recorded for CC(=O)Nc1ccccc1-c1nc2ccccc2nc1C was > 100 µM (inactive)

Lab note: measured GI50 of COc1ccc2cc(CNCCCCCCCCCCCCNCc3ccc4cc(OC)ccc4c3)ccc2c1 was 24.3 µM (inactive)

The recorded GI50 for CCN(CC)CCNc1ccc([N+](=O)[O-])c2nc3ccc(OC)cc3c(N)c12 is 1.27 µM (inactive)

So, O=C(NCCSSCCNC(=O)/C(Cc1ccc(O)c(Br)c1)=N/O)/C(Cc1ccc(O)c(Br)c1)=N/O [PSAMMAPLIN A] ? Its GI50 was 1.44 µM (inactive)

Form: compound = Cc1cc(O)c(C(C)C)cc1CN1CCCCC1 ; GI50 = > 100 µM (inactive)

Looking up CCOc1cc(C2CC(c3ccc(NS(=O)(=O)c4cc([N+](=O)[O-])ccc4C)cc3)=NN2c2ccc([N+](=O)[O-])cc2[N+](=O)[O-])ccc1O (centres undefined) , I found its GI50 recorded as 6.55 µM (inactive)

# GI50 of COc1ccc(C(c2ccccc2)N2C(=O)CCC2C(=O)O)cc1OC (centres undefined) = > 100 µM (inactive)

Noted for OCCCc1ccc2c(c1)[C@H](CO)[C@@H](c1ccc(O)cc1)O2 : its GI50 reads > 100 µM (inactive)

Query O=c1cc(-c2ccccc2)oc2cc(O)cc(O)c12 [CHRYSIN] yields GI50 of 27 µM (inactive)

Sample Cc1ccc(C)c(NC(=O)CC2SC(Nc3ccccc3Cl)=NC2=O)c1 (centres undefined) ; GI50 observed: 65.3 µM (inactive)

Value of GI50 reported for the compound CC1=C(C)C(=O)OC(C(C)(O)C2(O)CC3OC34C3CC(O)C56OC5C=CC(=O)C6(C)C3CCC42C)C1 (centres undefined) is 3.33 µM (inactive)

Reported GI50 for O=[N+]([O-])C(C(Cl)=C(Cl)Cl)=C(N1CCOCC1)N1CCOCC1 was > 100 µM (inactive)

// field: GI50; key: O=C1Cc2c([nH]c3ccc(Br)cc23)-c2ccccc2N1 [KENPAULLONE] ; value = > 90.2 µM (inactive)

Just so you know, measured GI50 for CC(=O)n1nc(-c2[nH]c(C)c(-c3nn(C(C)=O)c(=S)o3)c2C)oc1=S came out at > 100 µM (inactive)

Lab note: CC(=O)C(/N=N\C1CCC(S(=O)(=O)NB2N=CS2)CC1)C(=O)Nc1ccccc1C (centres undefined) gave GI50 of 13 µM (inactive)

Item: CCOC(=O)c1c(NC(=O)c2cccs2)sc2c1CCC2 | GI50: > 100 µM (inactive)

Where do these numbers come from? They come from ChEMBL document CHEMBL1201862.
